target: human TRPA1 (Homo sapiens (Human), UniProt O75762); experiment: FLIPR Tetra calcium influx assay, block of cinnamaldehyde-induced calcium influx in CHO cells expressing TRPA1 (human); assay type: cell-based; details: 20 min compound incubation, 75 uM cinnamaldehyde (~EC80), Hill coefficient fixed to 1.5, read-out: hTRPA1 AUC IC50
Sequence (O75762 whole entry): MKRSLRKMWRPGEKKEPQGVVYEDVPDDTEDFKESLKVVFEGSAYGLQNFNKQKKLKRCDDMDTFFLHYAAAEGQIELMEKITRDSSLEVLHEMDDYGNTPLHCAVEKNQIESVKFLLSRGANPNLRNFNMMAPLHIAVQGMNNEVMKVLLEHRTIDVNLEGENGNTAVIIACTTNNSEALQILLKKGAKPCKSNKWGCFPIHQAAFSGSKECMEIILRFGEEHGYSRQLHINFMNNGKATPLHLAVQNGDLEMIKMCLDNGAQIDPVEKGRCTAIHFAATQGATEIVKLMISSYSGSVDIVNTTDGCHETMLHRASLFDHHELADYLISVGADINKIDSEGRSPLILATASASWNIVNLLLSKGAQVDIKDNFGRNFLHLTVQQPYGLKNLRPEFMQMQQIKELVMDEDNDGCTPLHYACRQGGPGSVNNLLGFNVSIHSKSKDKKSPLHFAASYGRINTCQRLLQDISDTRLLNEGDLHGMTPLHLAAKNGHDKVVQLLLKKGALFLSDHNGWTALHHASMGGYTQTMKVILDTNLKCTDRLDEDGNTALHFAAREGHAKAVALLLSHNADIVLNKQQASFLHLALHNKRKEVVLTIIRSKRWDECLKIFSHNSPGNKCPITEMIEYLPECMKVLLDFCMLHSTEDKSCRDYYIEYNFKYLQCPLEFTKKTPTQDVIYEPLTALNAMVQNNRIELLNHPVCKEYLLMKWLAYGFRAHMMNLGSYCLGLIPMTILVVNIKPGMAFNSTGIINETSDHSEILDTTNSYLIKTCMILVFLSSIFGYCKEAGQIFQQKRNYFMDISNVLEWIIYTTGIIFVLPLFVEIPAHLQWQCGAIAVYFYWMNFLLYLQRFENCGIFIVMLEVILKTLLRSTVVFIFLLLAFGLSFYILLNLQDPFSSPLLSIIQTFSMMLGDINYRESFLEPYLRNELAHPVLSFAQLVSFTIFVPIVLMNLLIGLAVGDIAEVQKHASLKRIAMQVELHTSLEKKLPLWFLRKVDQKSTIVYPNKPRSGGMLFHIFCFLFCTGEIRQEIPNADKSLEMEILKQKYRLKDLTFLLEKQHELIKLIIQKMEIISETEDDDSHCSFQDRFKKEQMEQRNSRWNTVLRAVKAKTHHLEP
pIC50: −log10 of the molar value.

# SMILES INPUT, pIC50
data = [
    ("Cc1cc(-c2cnc(C(F)(F)F)nc2)cc(CNC(=O)[C@@H]2[C@@H](F)CCN2S(=O)(=O)c2ccc(F)cc2)n1", 7.57),
    ("O=C(NCc1cc(-c2ccc(OC(F)(F)F)cc2)ncn1)[C@@H]1[C@@H](F)CCN1S(=O)(=O)c1ccc(F)cc1", 8.15),
    ("C[C@@]1(F)C[C@@H](C(=O)NCc2cc(-c3ccc(OC(F)(F)F)cc3)ncn2)N(S(=O)(=O)c2ccc(F)cc2)C1", 7.70),
    ("O=C(NCc1cc(-c2cnc(C(F)(F)F)nc2)ccc1F)[C@@H]1[C@H]2C[C@H]2CN1S(=O)(=O)c1ccc(F)cc1", 8.52),
    ("O=C(NCc1cc(F)cc(-c2cnc(C(F)(F)F)nc2)c1)[C@@H]1C[C@@H](F)CN1S(=O)(=O)c1ccc(F)cc1", 7.85),
    ("O=C(NCc1ccnc(-c2ccc(OC(F)F)cc2)c1)[C@@H]1C[C@@H](F)CN1S(=O)(=O)c1ccc(F)cc1", 7.07),
]

* * *

IC50 values, listed per item
target: human TRPA1 (Homo sapiens (Human), UniProt O75762); assay: FLIPR Tetra calcium influx assay, block of cinnamaldehyde-induced calcium influx in CHO cells expressing TRPA1 (human); format: cell-based; settings: 20 min compound incubation, 75 uM cinnamaldehyde (~EC80), Hill coefficient fixed to 1.5, read-out: hTRPA1 AUC IC50

# MOLECULE, MEASUREMENT TARGET, IC50, nM
rows = [
    ("O=C(NCc1cn(-c2ccc(C(F)(F)F)nc2)nc1C1CC1)[C@@H]1C[C@@H](F)CN1S(=O)(=O)c1ccc(F)cc1", "human TRPA1 (Homo sapiens (Human), UniProt O75762)", 161),
    ("O=C(NCc1cc(-c2cnc(C(F)(F)F)cn2)c(F)cn1)[C@@H]1C[C@@H](F)CN1S(=O)(=O)c1ccc(F)cc1", "human TRPA1 (Homo sapiens (Human), UniProt O75762)", 66),
    ("COc1cc(CNC(=O)[C@@H]2C[C@@H](F)CN2S(=O)(=O)c2ccc(F)cc2)cc(-c2ccc(C(F)(F)F)nc2)c1", "human TRPA1 (Homo sapiens (Human), UniProt O75762)", 47),
    ("O=C(NCc1cc(N2CCC3(CC2)CC3(F)F)c(F)cn1)[C@@H]1C[C@@H](F)CN1S(=O)(=O)c1ccc(F)cc1", "human TRPA1 (Homo sapiens (Human), UniProt O75762)", 14),
    ("O=C(NCc1cc(-c2ccc(C(F)F)cc2)c(F)cn1)[C@@H]1C[C@@H](F)CN1S(=O)(=O)c1ccc(F)cc1", "human TRPA1 (Homo sapiens (Human), UniProt O75762)", 41),
    ("O=C(NCc1cc(-c2cnc(C(F)(F)F)cn2)ccn1)[C@@H]1C[C@@H](F)CN1S(=O)(=O)c1ccc(F)cc1", "human TRPA1 (Homo sapiens (Human), UniProt O75762)", 189),
    ("Nc1nc(C(F)(F)F)ccc1-c1cc(CNC(=O)[C@@H]2C[C@@H](F)CN2S(=O)(=O)c2ccc(F)cc2)ccn1", "human TRPA1 (Homo sapiens (Human), UniProt O75762)", 175),
    ("O=C(NCc1cc(-c2ccc(C(F)(F)F)nc2)nc(-c2ccc(C(F)(F)F)nc2)c1)[C@@H]1C[C@@H](F)CN1S(=O)(=O)c1ccc(F)cc1", "human TRPA1 (Homo sapiens (Human), UniProt O75762)", 54.6),
    ("N#Cc1cnc(CNC(=O)[C@@H]2C[C@@H](F)CN2S(=O)(=O)c2ccc(F)cc2)cc1-c1ccc(C(F)(F)F)cc1", "human TRPA1 (Homo sapiens (Human), UniProt O75762)", 23),
    ("C[C@@]1(F)C[C@@H](C(=O)NCc2cc(-c3ccc(C(F)(F)F)nc3)ncn2)N(S(=O)(=O)c2ccc(F)cc2)C1 (single isomer, unassigned)", "human TRPA1 (Homo sapiens (Human), UniProt O75762)", 90),
    ("O=C(NCc1cc(F)cc(-c2cnc(C(F)(F)F)cn2)c1)[C@@H]1[C@@H](F)CCN1S(=O)(=O)c1ccc(F)cc1", "human TRPA1 (Homo sapiens (Human), UniProt O75762)", 4),
    ("COc1nn(-c2ccc(C(F)(F)F)nc2)cc1CNC(=O)[C@@H]1C[C@@H](F)CN1S(=O)(=O)c1ccc(F)cc1", "human TRPA1 (Homo sapiens (Human), UniProt O75762)", 68),
    ("O=C(NCc1cc(-c2cnc(C(F)(F)F)nc2)c(F)cn1)[C@@H]1C[C@@H](F)CN1S(=O)(=O)c1ccc(F)cc1", "human TRPA1 (Homo sapiens (Human), UniProt O75762)", 38),
]
